Data credit: patent US10307388B2

- METHOD: Total serum fatty acid concentrations in dolphins fed modified fish diet
- EXPERIMENTAL CONDITIONS: bottlenose dolphin (Tursiops truncatus), serum, oral
METRIC: concentration at 3 month

Ask: Entry under review: CCCCCCCCCCCCCCCCCCCCCCCC(=O)O [C24:0, lignoceric acid] . Reported concentration at 3 month?
Result: 18 µM

---

Task for the reader: assign each of the following compounds its reported Total serum fatty acid concentration.
- METHOD: Total serum fatty acid concentrations in dolphins fed modified fish diet
- EXPERIMENTAL CONDITIONS: case dolphins fed modified diet (n = 20), Month 1, 2h postprandial
Unit µM implied. Number only.

Ask: Requested field: Total serum fatty acid concentration. Item: CCCCCCCCCCCCCCCCC(=O)O
Result: 82

Ask: Another compound to look at: CCCCCCCCCCCCCCCCCCCCCC(=O)O
Result: 21

Ask: And CCCCCCCCCCCCCCCCCCCCCCCCCC(=O)O ?
Result: 0.8

Ask: Same thing, different compound: CCCCCCCCCCCCCCC(=O)O
Result: 94

Ask: Field entry: CCCCCCCCCCCCCCCC(=O)O
Result: 1372

---

- METHOD: Total serum fatty acid concentrations in dolphins fed modified fish diet
- EXPERIMENTAL CONDITIONS: bottlenose dolphin (Tursiops truncatus), in vivo
METRIC: concentration at 6 month (µM)
Reply with just the number (in µM).

Ask: Bench note: what concentration at 6 month did CCCCCCCCCCCCCCCCCCCC(=O)O show?
Result: 96

---

- METHOD: Total serum fatty acid concentrations in dolphins fed modified fish diet
- EXPERIMENTAL CONDITIONS: bottlenose dolphin (Tursiops truncatus), serum, oral
- Protocol: This study examined the impact on inflammation by modifying fatty acid profiles through the diet in 20 MMP dolphins (“Group A dolphins”). The dolphins lived in netted enclosures within San Diego Bay. […] On blood collection days, Group A dolphins were fed one-third of their daily diet in the morning after their routine overnight fast and 2h postprandial, in-water, and trained blood samples were drawn (typically near 10:00 a.m.). […]
METRIC: concentration at 0 month (µM)
Form entry: value (µM) — number only.

Ask: Item under review: CCCCCCCCCCCCCCCCCCCCCCCC(=O)O . Reported concentration at 0 month?
Result: 18
